Origin of measurements: PubChem BioAssay

- Assay target: Dihydroorotate dehydrogenase (quinone), mitochondrial (Plasmodium falciparum (isolate 3D7)) (UniProt Q08210)
- Sequence (Q08210 whole entry, looked up): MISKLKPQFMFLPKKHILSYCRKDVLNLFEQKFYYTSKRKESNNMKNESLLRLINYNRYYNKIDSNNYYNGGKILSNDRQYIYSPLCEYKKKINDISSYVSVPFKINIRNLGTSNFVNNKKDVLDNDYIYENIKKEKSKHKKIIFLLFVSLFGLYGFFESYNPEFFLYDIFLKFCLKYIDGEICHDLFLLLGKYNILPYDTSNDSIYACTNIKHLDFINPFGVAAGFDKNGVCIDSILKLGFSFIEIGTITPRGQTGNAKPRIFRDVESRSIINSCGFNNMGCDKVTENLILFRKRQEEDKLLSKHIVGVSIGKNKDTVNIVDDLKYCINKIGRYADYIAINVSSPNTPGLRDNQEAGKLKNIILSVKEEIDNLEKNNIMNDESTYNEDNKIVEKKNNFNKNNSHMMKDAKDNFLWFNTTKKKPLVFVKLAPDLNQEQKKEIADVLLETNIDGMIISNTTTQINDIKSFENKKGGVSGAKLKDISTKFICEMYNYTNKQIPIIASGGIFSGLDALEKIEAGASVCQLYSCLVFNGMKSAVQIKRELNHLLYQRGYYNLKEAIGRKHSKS
- Test summary: inhibition of P. falciparum DHODH – biochemical, C-terminal His tag, absorbance 600 nm, primary screen (AID 1175);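 also: recombinant parasite enzyme with a five histidine tag at its C terminus; test concentration not given here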
- Experimental setup: PfDHODH enzyme, DCIP absorbance 600 nm; higher = more signal, called active from +8 up or from −8 down
Observed property: composite z-score

[[record]]
compound = "CCCC[C@H]1C[C@@H]1[C@@H]1N(P(=O)(c2ccccc2)c2ccccc2)[C@](CO)(c2ccccc2)CC12CC2"
numeric_value = -0.152

[[record]]
compound = "CN1C(=O)C2C=CC(C(O)C=Cc3ccc([N+](=O)[O-])cc3)N(N3CCCCC3)C2C1=O (centres undefined)"
numeric_value = -0.358

[[record]]
compound = "CC(C)N1C(=O)c2ccccc2[C@](C)(C(=O)NC2CC2)[C@@H]1c1ccc(CO)cc1"
numeric_value = -0.231

[[record]]
compound = "C=C(CCCC)C(=O)CC[C@@H](OC(=O)c1ccccc1-c1ccccc1C(=O)O)c1ccc(CO)o1"
numeric_value = -2.93


----------
- Test summary: growth of efflux-deficient E. coli DRC39 – strain DRC39, OD650, 24 h, E. coli filamentation inducers, primary screen (AID 1178);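 also: growth measured as culture turbidity by optical density at 650 nm; test concentration not given here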
- Experimental setup: E. coli DRC39 acrAB, higher = more signal, called active from +8 up or from −8 down
Calls of active or inactive are those of the source.
Observed property: z-score

[[record]]
compound = "COCCOC(=O)N1C(=O)[C@@]2(c3ccccc31)[C@H](C(=O)N1CCCCCCC1)[C@H]1C(=O)O[C@H](c3ccccc3)[C@H](c3ccccc3)N1[C@@H]2c1ccccc1OCCO"
result = "-0.38 (inactive)"

[[record]]
compound = "C=CCNC(=O)[C@H]1[C@@H]2C(=O)O[C@@H](c3ccccc3)[C@@H](c3ccccc3)N2[C@@H](c2ccc(OCCO)cc2)[C@]12C(=O)N(C(=O)OCCOC)c1ccc(C#CC3(O)CCCCCC3)cc12"
result = "-0.129 (inactive)"

[[record]]
compound = "COc1ccccc1CN1C(=O)c2ccccc2[C@](Cc2ccccc2I)(C(=O)NCc2ccccc2)[C@@H]1c1ccc(CO)cc1"
result = "-0.331 (inactive)"

[[record]]
compound = "CC(C)C[C@@H]1NC(=O)[C@@H]2C[C@H](C(=O)NCCCCN(C)C)[C@H](c3ccc(O)cc3)N2C1=O"
result = "-0.113 (inactive)"

[[record]]
compound = "C=CCN1C(=O)[C@@]2(O[C@@H](CCO)[C@H]([Si](C)(C)c3ccc(OC)cc3)[C@H]2C)c2cc(NC(C)=O)ccc21"
result = "0.166 (inactive)"

[[record]]
compound = "CC(c1ccccc1)C(O)C1C=CC2C(=O)N(c3ccccc3)C(=O)C2N1Nc1ccccc1F (configuration not stated)"
result = "0.0976 (inactive)"

[[record]]
compound = "COc1cc2c(cc1O)C(c1ccc(CN3CCCC3)cc1)N(Cc1sc3ccccc3c1Cl)CC2 (configuration not stated)"
result = "1.23 (inactive)"


----------
- Test summary: Pseudomonas biofilm growth suppression – PAO1 strain, BacTiter-Glo luminescence, LB-PBS, primary screen (AID 1144)
- Experimental setup: P. aeruginosa PAO1 biofilm, 12 h, higher = more signal
Observed property: z-score

[[record]]
smiles_data = "NC(=O)NCC#Cc1ccc2c(c1)[C@]1(C(=O)N2)[C@H](c2ccc(O)cc2)N2[C@H](c3ccccc3)[C@H](c3ccccc3)OC(=O)[C@H]2[C@@H]1C(=O)N1CCN(c2ncccn2)CC1"
numeric_value = 0.185

[[record]]
smiles_data = "COC(=O)C(CC#Cc1ccc2c(c1)[C@]1(C(=O)N2)[C@H](C(=O)N2CCCCCCC2)[C@H]2C(=O)O[C@H](c3ccccc3)[C@H](c3ccccc3)N2[C@@H]1c1ccccc1OCCO)C(=O)OC"
numeric_value = -0.429

[[record]]
smiles_data = "O=C(CS)NCCCCCNC(=O)[C@H]1C[C@H]2C(=O)N[C@@H](Cc3ccccc3)C(=O)N2[C@H]1c1cccc(OCCO)c1"
numeric_value = -0.388


----------
- Test summary: viability profiling in MM1S myeloma cells – cell-based, resazurin fluorescence, basal, 24 h, PK04 Diversity Set, profiling panel (AID 1174);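 also: MM1S multiple myeloma cell line; test concentration not given here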
- Experimental setup: higher = more signal, called active from +8 up or from −8 down
Listing of recorded z-score by entry.
Observed property: z-score

[[record]]
molecule = "O=C1OCC=C[C@H]2OC34C=CCN(CCN5CCOCC5)C(=O)[C@H]3N(CCCCCCO)C(=O)[C@@H]4[C@@H]12 (stereo partly specified)"
observed_property = "z-score"
numeric_value = 0.501

[[record]]
molecule = "Cc1ccc(S[C@]2(C(=O)NCCCN(C)C)CC(=O)N(C(C)C)[C@@H]2c2ccc(CO)cc2I)cc1"
observed_property = "z-score"
numeric_value = -3.69

[[record]]
molecule = "C=C(COC)/C(=C/C[C@H](OC(C)=O)c1ccccc1OCCO)c1cnc2ccccc2c1"
observed_property = "z-score"
numeric_value = -0.885

[[record]]
molecule = "O=C1O[C@@H](c2ccccc2)[C@@H](c2ccccc2)N2[C@@H](c3ccccc3OCCO)[C@]3(C(=O)Nc4ccc(C#CC5(O)CCCCCC5)cc43)[C@@H](C(=O)NC[C@H](O)c3ccccc3)[C@H]12"
observed_property = "z-score"
numeric_value = -7.38

[[record]]
molecule = "[N-]=[N+]=NCc1ccccc1C[C@]1(C(=O)N2CCOCC2)N=C(c2ccc(OCCCO)cc2)O[C@H]1c1ccccc1"
observed_property = "z-score"
numeric_value = -2.29

[[record]]
molecule = "Cc1ccc(N2C(=O)c3ccccc3[C@@H](C(=O)NCC(C)C)[C@@H]2c2ccc(CO)cc2)nc1"
observed_property = "z-score"
numeric_value = 0.439

[[record]]
molecule = "C=CC[C@]1(C(=O)NCCN2CCOCC2)N=C(c2ccc(OCCCO)cc2)O[C@H]1c1ccccc1N=[N+]=[N-]"
observed_property = "z-score"
numeric_value = 0.0032

[[record]]
molecule = "[N-]=[N+]=NCc1ccccc1C[C@]1(C(=O)NCCN2CCOCC2)N=C(c2ccc(OCCCO)cc2)O[C@H]1c1ccccc1CN=[N+]=[N-]"
observed_property = "z-score"
numeric_value = 0.836

[[record]]
molecule = "COc1ccc([Si](C)(C)[C@@H]2[C@@H](CC(=O)N3Cc4ccccc4C[C@H]3CO)O[C@]3(C(=O)N(Cc4cccc(N5C(=O)COc6ccccc65)c4)c4ccccc43)[C@H]2C)cc1"
observed_property = "z-score"
numeric_value = -1.84

[[record]]
molecule = "O=c1cccc(-c2ccccc2)o1"
observed_property = "z-score"
numeric_value = 0.0841

[[record]]
molecule = "COCCCNC(=O)[C@@]1(Cc2ccccc2I)c2ccccc2C(=O)N(Cc2ccccc2)[C@H]1c1ccc(CO)cc1"
observed_property = "z-score"
numeric_value = 1.01

[[record]]
molecule = "CCCCCN1CC=CC23O[C@@H]4C=CCCOC(=O)C4[C@H]2C(=O)N(CCCO)[C@@H]3C1=O (stereo partly specified)"
observed_property = "z-score"
numeric_value = 0.435

[[record]]
molecule = "CCCC[C@@H]1C[C@H]1[C@@H](NC(=O)c1ccco1)c1ccccc1"
observed_property = "z-score"
numeric_value = 0.757

[[record]]
molecule = "COc1ccc([Si](C)(C)[C@H]2[C@H](CC(=O)N3CCC[C@H]3CO)O[C@@]3(C(=O)N(c4ccccc4)c4ccccc43)[C@@H]2C)cc1"
observed_property = "z-score"
numeric_value = 1.55

[[record]]
molecule = "C=CCCN(CC#C[C@H]1Oc2ccccc2S(=O)(=O)N2CCC[C@@H]12)S(=O)(=O)c1ccc(C)cc1"
observed_property = "z-score"
numeric_value = -1.33

[[record]]
molecule = "CCN(CC)c1ccc(N2CC=CC34O[C@@H]5C=CCCOC(=O)C5[C@H]3C(=O)N(CCCO)[C@@H]4C2=O)cc1 (stereo partly specified)"
observed_property = "z-score"
numeric_value = 0.61


----------
Listing of recorded z-score by entry.
- Test summary: JC-1 mitochondrial signal, unstimulated MM1S myeloma – cell-based, JC-1 fluorescence, 24 h, 100 nL compound, profiling panel (AID 1170); also: test concentration not given here
- Experimental setup: MM1S mitochondrial potential, higher = more signal
Observed property: z-score

[[record]]
compound = "COCCOC(=O)N1C(=O)[C@@]2(c3cc(C#CC4=CCCCC4)ccc31)[C@H](C(=O)N1CCN(c3ncccn3)CC1)[C@H]1C(=O)O[C@H](c3ccccc3)[C@H](c3ccccc3)N1[C@@H]2c1ccc(OCCO)cc1"
numeric_value = -0.822

[[record]]
compound = "O=C1O[C@@H](c2ccccc2)[C@@H](c2ccccc2)N2[C@@H](c3ccccc3OCCO)[C@]3(C(=O)Nc4ccc(C#CC5(O)CCCCCC5)cc43)[C@@H](C(=O)NC[C@H](O)c3ccccc3)[C@H]12"
numeric_value = -1.98

[[record]]
compound = "CCCC[C@@H]1C[C@H]1[C@@H](NC(=O)c1ccco1)c1ccccc1"
numeric_value = -2.24

[[record]]
compound = "C[N+](C)(C)CCCCNC(=O)[C@H]1C[C@H]2C(=O)N3CCC[C@H]3C(=O)N2[C@H]1c1ccc(O)cc1"
numeric_value = -0.38

[[record]]
compound = "O=C1C2C=CC(C(O)C3CC=CCC3)N(n3cnnc3)C2C(=O)N1Cc1ccccc1 (centres undefined)"
numeric_value = -0.109

[[record]]
compound = "C=CCC(OC(C)=O)[C@@H]1[C@@H](N(Cc2cc3ccccc3o2)C(=O)c2ccc(C)cc2)c2cc(OCCCO)ccc2N1C(=O)c1ccc(-c2ccccc2)cc1 (some centres undefined)"
numeric_value = -0.763

[[record]]
compound = "C=CCN1C(=O)[C@@]2(O[C@@H](CCO)[C@H]([Si](C)(C)c3ccc(OC)cc3)[C@H]2C)c2cc(NC(C)=O)ccc21"
numeric_value = -0.722

[[record]]
compound = "CO[C@H]1O[C@H](CO)[C@@H](OC(=O)Nc2ccc3c(c2)OCO3)[C@H](OC(=O)Nc2ccc3c(c2)OCO3)[C@H]1OC(=O)Nc1ccc2c(c1)OCO2"
numeric_value = 0.961

[[record]]
compound = "O=C1C2C=CC(C(O)CCc3ccccc3)N(Nc3ccccc3)C2C(=O)N1c1ccccc1 (centres undefined)"
numeric_value = -0.174

[[record]]
compound = "COc1ccccc1CN1C(=O)c2ccccc2[C@](Cc2ccccc2I)(C(=O)NCc2ccccc2)[C@@H]1c1ccc(CO)cc1"
numeric_value = -0.318

[[record]]
compound = "COc1cc(NN2C(C(O)c3ccccc3)C=CC3C(=O)N(c4ccccc4)C(=O)C32)cc(OC)c1OC (centres undefined)"
numeric_value = -1.41

[[record]]
compound = "COC(=O)C(CC#Cc1ccc2c(c1)[C@]1(C(=O)N2)[C@H](C(=O)N2CCCCCCC2)[C@H]2C(=O)O[C@H](c3ccccc3)[C@H](c3ccccc3)N2[C@@H]1c1ccccc1OCCO)C(=O)OC"
numeric_value = -1.33

[[record]]
compound = "CC(C)NC(=O)[C@@]1(c2ccc([N+](=O)[O-])cc2)CC(=O)N(C(C)C)[C@@H]1c1ccc(CO)cc1"
numeric_value = -0.228

[[record]]
compound = "COCC1=C([C@H](O)CCc2ccccc2)[C@H](CO)[C@@H]2C(=O)N(Cc3ccccc3)C(=O)[C@@H]2C1"
numeric_value = -1.37

